Provenance of the data: ChEMBL document CHEMBL4270630

Test system: H3N2 subtype
Assay: Antiviral activity against Influenza A virus A/HK/7/87(H3N2) infected in MDCK cells assessed as reduction in virus-induced cytopathic effect after 3 days by microscopic method
Format: functional, organism-based
Conditions: A/Hong Kong/7/1987(H3N2), 72 h
pEC50: −log10 of the molar value.
This listing pairs compounds with measured pEC50.

Compound	Observation type	Result
CCCCSC1=C(SCCCC)C(=O)N(Cc2cn(C3C(=O)N[C@@H]4Cc5ccc(c(Cl)c5)Oc5cc6cc(c5O)Oc5ccc(cc5Cl)[C@@H](O[C@@H]5O[C@H](CO)[C@@H](O)[C@H](O)[C@H]5NC(C)=O)[C@H]5NC(=O)[C@H](NC(O)[C@@H]6NC(=O)[C@@H](NC4=O)c4cc(O)cc(c4)Oc4cc3ccc4O)c3ccc(O)c(c3)-c3c(O)cc(O)cc3[C@H](C(=O)O)NC5=O)nn2)C1=O (some centres not stated)	pEC50	< 4.00

Continue with the compound presented below.
input: Which pEC50 value is on record for CCCSC1=C(SCCC)C(=O)N([C@H]2C(=O)N[C@@H]3Cc4ccc(c(Cl)c4)Oc4cc5cc(c4O)Oc4ccc(cc4Cl)[C@@H](O[C@@H]4O[C@H](CO)[C@@H](O)[C@H](O)[C@H]4NC(C)=O)[C@H]4NC(=O)[C@H](NC(O)[C@@H]5NC(=O)[C@@H](NC3=O)c3cc(O)cc(c3)Oc3cc2ccc3O)c2ccc(O)c(c2)-c2c(O)cc(O)cc2[C@H](C(=O)O)NC4=O)C1=O (some centres not stated) ?
output: < 4.00

----------
Test: Cytotoxicity against MDCK cells assessed as reduction in cell viability after 3 days by MTS assay
Format: cell-based, Canis lupus familiaris
Settings: dog, MDCK cells
Observation type: CC50 at 72 h

input: Which CC50 at 72 h value is on record for CC(=O)N[C@H]1[C@H](O[C@@H]2c3ccc(c(Cl)c3)Oc3cc4cc(c3O)Oc3ccc(cc3Cl)C[C@H]3NC(=O)[C@H](n5cc(COC[C@H]6O[C@@H]7OC(C)(C)O[C@@H]7[C@H]7OC(C)(C)O[C@H]76)nn5)c5ccc(O)c(c5)Oc5cc(O)cc(c5)[C@H](NC3=O)C(=O)N[C@H]4C(O)N[C@H]3C(=O)N[C@H]2C(=O)N[C@@H](C(=O)O)c2cc(O)cc(O)c2-c2cc3ccc2O)O[C@H](CO)[C@@H](O)[C@@H]1O (stereo partly specified) ?
output: > 100 µM

----------
This listing pairs compounds with measured MCC at 72 h.
Assay: Cytotoxicity against MDCK cells assessed as alteration in cell morphology after 3 days by microscopic method
Assay type: cell-based, Canis lupus familiaris
Conditions: dog
The reply should be a number in µM, with the unit left off.

Compound	Result unit	Result number
CCCCCCCCCCCCSC1=C(SCCCCCCCCCCCC)C(=O)N(CCOCCOCCOCCOCc2cn(C3C(=O)N[C@@H]4Cc5ccc(c(Cl)c5)Oc5cc6cc(c5O)Oc5ccc(cc5Cl)[C@@H](O[C@@H]5O[C@H](CO)[C@@H](O)[C@H](O)[C@H]5NC(C)=O)[C@H]5NC(=O)[C@H](NC(O)[C@@H]6NC(=O)[C@@H](NC4=O)c4cc(O)cc(c4)Oc4cc3ccc4O)c3ccc(O)c(c3)-c3c(O)cc(O)cc3[C@H](C(=O)O)NC5=O)nn2)C1=O (some centres not stated)	µM	20

Continue with the compound presented below.
input: Which MCC at 72 h value is on record for CCCCCCCCCCCCS(=O)(=O)N[C@H]1C(=O)N[C@@H]2Cc3ccc(c(Cl)c3)Oc3cc4cc(c3O)Oc3ccc(cc3Cl)[C@@H](O[C@@H]3O[C@H](CO)[C@@H](O)[C@H](O)[C@H]3NC(C)=O)[C@H]3NC(=O)[C@H](NC(O)[C@@H]4NC(=O)[C@@H](NC2=O)c2cc(O)cc(c2)Oc2cc1ccc2O)c1ccc(O)c(c1)-c1c(O)cc(O)cc1[C@H](C(=O)O)NC3=O (some centres not stated) ?
output: 4

----------
Test system: Human coronavirus 229E
Assay: Antiviral activity against Human coronavirus 229E infected in human A549 cells assessed as reduction in virus RNA level after 3 days by qRT-PCR method
Assay type: functional
Details: A549, 72 h
Observation type: EC99
Don't forget the unit after the value.

input: Request body: readout EC99, system Human coronavirus 229E, query CCCCCCCCS(=O)(=O)N[C@H]1C(=O)N[C@@H]2Cc3ccc(c(Cl)c3)Oc3cc4cc(c3O)Oc3ccc(cc3Cl)[C@@H](O[C@@H]3O[C@H](CO)[C@@H](O)[C@H](O)[C@H]3NC(C)=O)[C@H]3NC(=O)[C@H](NC(O)[C@@H]4NC(=O)[C@@H](NC2=O)c2cc(O)cc(c2)Oc2cc1ccc2O)c1ccc(O)c(c1)-c1c(O)cc(O)cc1[C@H](C(=O)O)NC3=O (stereo partly specified) . Return the value.
output: 9.4 µM

----------
Assay: Selectivity index, ratio of MCC for MDCK cells to EC50 for Influenza A virus A/HK/7/87(H3N2) infected in MDCK cells assessed as reduction in virus-induced cytopathic effect by microscopic method
Format: toxicity, cell-based
Settings: dog, read-out: Selectivity Index
This listing pairs molecules with measured selectivity ratio.
Lab note: jot down the number only; don't add units.

Molecule	selectivity ratio
CCCCSC1=C(SCCCC)C(=O)N(CCOCCOCCOCCOCc2cn(C3C(=O)N[C@@H]4Cc5ccc(c(Cl)c5)Oc5cc6cc(c5O)Oc5ccc(cc5Cl)[C@@H](O[C@@H]5O[C@H](CO)[C@@H](O)[C@H](O)[C@H]5NC(C)=O)[C@H]5NC(=O)[C@H](NC(O)[C@@H]6NC(=O)[C@@H](NC4=O)c4cc(O)cc(c4)Oc4cc3ccc4O)c3ccc(O)c(c3)-c3c(O)cc(O)cc3[C@H](C(=O)O)NC5=O)nn2)C1=O (some centres not stated)	16

Continue with the molecule presented below.
input: Which selectivity ratio value is on record for CCCCCCCCSC1=C(SCCCCCCCC)C(=O)N(Cc2cn(C3C(=O)N[C@@H]4Cc5ccc(c(Cl)c5)Oc5cc6cc(c5O)Oc5ccc(cc5Cl)[C@@H](O[C@@H]5O[C@H](CO)[C@@H](O)[C@H](O)[C@H]5NC(C)=O)[C@H]5NC(=O)[C@H](NC(O)[C@@H]6NC(=O)[C@@H](NC4=O)c4cc(O)cc(c4)Oc4cc3ccc4O)c3ccc(O)c(c3)-c3c(O)cc(O)cc3[C@H](C(=O)O)NC5=O)nn2)C1=O (some centres not stated) ?
output: 10

----------
This listing pairs compounds with measured EC99.
Test system: Human coronavirus 229E
Assay: Antiviral activity against Human coronavirus 229E infected in human A549 cells assessed as reduction in virus RNA level after 3 days by qRT-PCR method
Assay type: functional
Conditions: A549, 72 h
The reply should be a number in µM, with the unit left off.

Compound	Result number
O=C(N/C(=C\c1ccccc1)C(=O)N1CCC(O)(c2ccc(Br)cc2)CC1)c1ccccc1	15

input: Which EC99 value is on record for CCCCCCCCOCc1cn(CCOCCOCCOCCOCc2cn([C@H]3C(=O)N[C@@H]4Cc5ccc(c(Cl)c5)Oc5cc6cc(c5O)Oc5ccc(cc5Cl)[C@@H](O[C@@H]5O[C@H](CO)[C@@H](O)[C@H](O)[C@H]5NC(C)=O)[C@H]5NC(=O)[C@H](NC(O)[C@@H]6NC(=O)[C@@H](NC4=O)c4cc(O)cc(c4)Oc4cc3ccc4O)c3ccc(O)c(c3)-c3c(O)cc(O)cc3[C@H](C(=O)O)NC5=O)nn2)nn1 (stereo partly drawn) ?
output: 30

input: Which EC99 value is on record for CCCCCCSC1=C(SCCCCCC)C(=O)N(Cc2cn(C3C(=O)N[C@@H]4Cc5ccc(c(Cl)c5)Oc5cc6cc(c5O)Oc5ccc(cc5Cl)[C@@H](O[C@@H]5O[C@H](CO)[C@@H](O)[C@H](O)[C@H]5NC(C)=O)[C@H]5NC(=O)[C@H](NC(O)[C@@H]6NC(=O)[C@@H](NC4=O)c4cc(O)cc(c4)Oc4cc3ccc4O)c3ccc(O)c(c3)-c3c(O)cc(O)cc3[C@H](C(=O)O)NC5=O)nn2)C1=O (stereo partly drawn) ?
output: 9.5

----------
This listing pairs molecules with measured selectivity ratio.
Test: Selectivity index, ratio of MCC for HEL299 cells to EC50 for Human coronavirus 229E infected in HEL299 cells
Type: toxicity, cell-based
Details: read-out: Selectivity Index

Worked cases, selectivity ratio given:
Molecule	selectivity ratio
CCCCCCCCCCCCS(=O)(=O)N[C@H]1C(=O)N[C@@H]2Cc3ccc(c(Cl)c3)Oc3cc4cc(c3O)Oc3ccc(cc3Cl)[C@@H](O[C@@H]3O[C@H](CO)[C@@H](O)[C@H](O)[C@H]3NC(C)=O)[C@H]3NC(=O)[C@H](NC(O)[C@@H]4NC(=O)[C@@H](NC2=O)c2cc(O)cc(c2)Oc2cc1ccc2O)c1ccc(O)c(c1)-c1c(O)cc(O)cc1[C@H](C(=O)O)NC3=O (stereo partly drawn)	13
CCCCCCS(=O)(=O)N[C@H]1C(=O)N[C@@H]2Cc3ccc(c(Cl)c3)Oc3cc4cc(c3O)Oc3ccc(cc3Cl)[C@@H](O[C@@H]3O[C@H](CO)[C@@H](O)[C@H](O)[C@H]3NC(C)=O)[C@H]3NC(=O)[C@H](NC(O)[C@@H]4NC(=O)[C@@H](NC2=O)c2cc(O)cc(c2)Oc2cc1ccc2O)c1ccc(O)c(c1)-c1c(O)cc(O)cc1[C@H](C(=O)O)NC3=O (stereo partly drawn)	11

input: Which selectivity ratio value is on record for CC(=O)N[C@H]1[C@H](O[C@@H]2c3ccc(c(Cl)c3)Oc3cc4cc(c3O)Oc3ccc(cc3Cl)C[C@H]3NC(=O)[C@H](NS(=O)(=O)c5ccc(C)cc5)c5ccc(O)c(c5)Oc5cc(O)cc(c5)[C@H](NC3=O)C(=O)N[C@H]4C(O)N[C@H]3C(=O)N[C@H]2C(=O)N[C@@H](C(=O)O)c2cc(O)cc(O)c2-c2cc3ccc2O)O[C@H](CO)[C@@H](O)[C@@H]1O (stereo partly drawn) ?
output: 19
